Test system: VDR:RXRa (NR concentration 270 nM, RXRa partner concentration 90 nM)
TEST_SUMMARY: PBM binding z-score (relative to random genomic background probes); higher = stronger binding; sequences stand for … in GC…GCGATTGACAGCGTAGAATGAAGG
METRIC_NAME: PBM binding z-score
Answer field: number only, no words.

query_sequence=AACTCTAGGTAAGACTCAGTTCAGTGAAGAACGC target_of_assay="VDR:RXRa (NR concentration 270 nM, RXRa partner concentration 90 nM)" experimental_value=0.138

Fill in the recorded PBM binding z-score for this sequence, with VDR:RXRa (NR concentration 270 nM, RXRa partner concentration 90 nM) as test system: CAGCCTAGGTCAGGTCCAGTATAGGAGGAACGTT
0.304

Fill in the recorded PBM binding z-score for this sequence, with VDR:RXRa (NR concentration 270 nM, RXRa partner concentration 90 nM) as test system: AGAATGAGGTTATACGTCGATCAGGGAAGAAAGT
1.29
